Tested on: human Factor 7 mRNA
EXPERIMENT DESCRIPTION: Antisense inhibition of human Factor 7 mRNA in HepB3 cells, 50 nM antisense oligonucleotide, lipofectin
Format: cell-based
SETUP CONDITIONS: Table 1, 50 nM, lipofectin, approximately 24 hours, relative to untreated control cells
Strand notation (5' to 3'): a small letter for the sugar, then the base; units joined by * are phosphorothioate-linked, units joined directly phosphodiester-linked; [ ] holds rarer units or linkages, { } end groups; capitals alone tell only the bases. e = 2'-O-(2-methoxyethyl) (MOE); [5mC] = 5-methylcytosine; d = 2'-deoxy (DNA)
MEASUREMENT KIND: % Inhibition (%)
The reply should contain only the number, in %.

Solved entries (count: 3):
{"SUBSTANCE": "407638 (antisense eG*e[5mC]*e[5mC]*eA*e[5mC]*dT*d[5mC]*dG*dA*dT*dG*dT*dA*d[5mC]*dT*eG*eG*eG*eA*eG) [compound 407638]", "ENDPOINT VALUE": 0}
{"SUBSTANCE": "407900 (antisense e[5mC]*e[5mC]*e[5mC]*e[5mC]*eA*d[5mC]*dA*dA*dT*dT*d[5mC]*dG*dG*d[5mC]*d[5mC]*eT*eT*eG*eG*eG) [compound 407900]", "ENDPOINT VALUE": 91}
{"SUBSTANCE": "407935 (antisense eA*eT*eG*e[5mC]*eA*dT*dG*dG*dT*dG*dA*dT*dG*d[5mC]*dT*eT*e[5mC]*eT*eG*eA) [compound 407935]", "ENDPOINT VALUE": 94}

Enquiry: Look at this substance and give its reported % Inhibition. 407915 (antisense eG*eT*eT*eG*e[5mC]*dG*d[5mC]*dA*dG*d[5mC]*d[5mC]*d[5mC]*dT*dG*dG*e[5mC]*e[5mC]*e[5mC]*e[5mC]*eA) [compound 407915]
Return: 83

Enquiry: Same thing, different substance: 407633 (antisense eG*e[5mC]*eA*eG*eG*d[5mC]*dA*dG*dT*d[5mC]*d[5mC]*dT*dG*dG*dG*eT*e[5mC]*eA*eT*e[5mC]) [compound 407633]
Return: 71

###

Attribute: % Inhibition (human Factor 7 mRNA levels)
Tested on: human Factor 7 mRNA
EXPERIMENT DESCRIPTION: Antisense inhibition of human Factor 7 mRNA in HepB3 cells, 50 nM antisense oligonucleotide, lipofectin
Assay type: cell-based
SETUP CONDITIONS: oligonucleotides targeted to nucleobases 11830 to 11869 of SEQ ID NO: 1 (Table 9)
Strand notation (5' to 3'): a small letter for the sugar, then the base; units joined by * are phosphorothioate-linked, units joined directly phosphodiester-linked; [ ] holds rarer units or linkages, { } end groups; capitals alone tell only the bases. e = 2'-O-(2-methoxyethyl) (MOE); [5mC] = 5-methylcytosine; d = 2'-deoxy (DNA)
The reply should contain only the number, in %.

Solved entries (count: 5):
{"SUBSTANCE": "422248 (antisense eG*eG*d[5mC]*dT*dG*dA*dG*dG*dA*dG*dA*d[5mC]*dA*dA*dT*eG*eG*eT*e[5mC]*eA) [compound 422248]", "ENDPOINT VALUE": 60}
{"SUBSTANCE": "422095 (antisense eA*e[5mC]*eA*eA*eT*dG*dG*dT*d[5mC]*dA*dG*dG*dG*d[5mC]*dT*eG*eG*eT*eT*eT) [compound 422095]", "ENDPOINT VALUE": 60}
{"SUBSTANCE": "422232 (antisense eG*eT*d[5mC]*dA*dG*dG*dG*d[5mC]*dT*dG*dG*dT*dT*dT*dT*eG*eG*eA*eG*eG) [compound 422232]", "ENDPOINT VALUE": 41}
{"SUBSTANCE": "422158 (antisense eA*eT*eG*dG*dT*d[5mC]*dA*dG*dG*dG*d[5mC]*dT*dG*dG*dT*dT*dT*eT*eG*eG) [compound 422158]", "ENDPOINT VALUE": 49}
{"SUBSTANCE": "422251 (antisense eG*e[5mC]*dT*dG*dG*d[5mC]*dT*dG*dA*dG*dG*dA*dG*dA*d[5mC]*eA*eA*eT*eG*eG) [compound 422251]", "ENDPOINT VALUE": 36}

Enquiry: Look at this substance and give its reported % Inhibition (human Factor 7 mRNA levels). 422088 (antisense eT*e[5mC]*eA*eG*eG*dG*d[5mC]*dT*dG*dG*dT*dT*dT*dT*dG*eG*eA*eG*eG*eA) [compound 422088]
Return: 8

Enquiry: Same thing, different substance: 422231 (antisense eT*e[5mC]*dA*dG*dG*dG*d[5mC]*dT*dG*dG*dT*dT*dT*dT*dG*eG*eA*eG*eG*eA) [compound 422231]
Return: 22

Enquiry: Same thing, different substance: 422157 (antisense eT*eG*eG*dT*d[5mC]*dA*dG*dG*dG*d[5mC]*dT*dG*dG*dT*dT*dT*dT*eG*eG*eA) [compound 422157]
Return: 49

Enquiry: Same thing, different substance: 422172 (antisense eT*eG*eG*d[5mC]*dT*dG*dA*dG*dG*dA*dG*dA*d[5mC]*dA*dA*dT*dG*eG*eT*e[5mC]) [compound 422172]
Return: 39

Enquiry: Same thing, different substance: 422240 (antisense eA*eG*dA*d[5mC]*dA*dA*dT*dG*dG*dT*d[5mC]*dA*dG*dG*dG*e[5mC]*eT*eG*eG*eT) [compound 422240]
Return: 66

Enquiry: Same thing, different substance: 422093 (antisense eA*eA*eT*eG*eG*dT*d[5mC]*dA*dG*dG*dG*d[5mC]*dT*dG*dG*eT*eT*eT*eT*eG) [compound 422093]
Return: 42

Enquiry: Same thing, different substance: 422162 (antisense eG*eA*e[5mC]*dA*dA*dT*dG*dG*dT*d[5mC]*dA*dG*dG*dG*d[5mC]*dT*dG*eG*eT*eT) [compound 422162]
Return: 59
